testTarget: CYP 3A4 (Homo sapiens, UniProt P08684)
Construct: purchased BioIVT X008067
Sequence (P08684 whole entry): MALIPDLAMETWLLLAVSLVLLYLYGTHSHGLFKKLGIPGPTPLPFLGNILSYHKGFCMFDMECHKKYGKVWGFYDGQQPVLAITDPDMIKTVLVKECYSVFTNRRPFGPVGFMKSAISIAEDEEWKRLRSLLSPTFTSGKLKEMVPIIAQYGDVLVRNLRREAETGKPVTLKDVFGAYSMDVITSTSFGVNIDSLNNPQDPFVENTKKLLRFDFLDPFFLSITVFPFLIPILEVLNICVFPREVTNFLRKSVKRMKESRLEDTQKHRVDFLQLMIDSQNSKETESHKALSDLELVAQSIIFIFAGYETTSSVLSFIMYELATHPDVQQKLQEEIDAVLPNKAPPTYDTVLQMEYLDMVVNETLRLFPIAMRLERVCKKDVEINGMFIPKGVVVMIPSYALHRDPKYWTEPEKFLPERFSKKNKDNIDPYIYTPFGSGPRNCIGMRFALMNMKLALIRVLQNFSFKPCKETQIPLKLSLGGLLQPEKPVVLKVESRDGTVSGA
methodNotes: CYP 3A4 time-dependent inhibition test
Type: in vitro ADME
statedConditions: 30 min pre-incubation without NADPH, midazolam substrate; read-out: IC50 (μM) 30 min, without NADPH
observedProperty: IC50 (µM)

Below, each entry is followed by its recorded IC50 result.
>  <compound>
[2H]C([2H])([2H])NC(=O)c1ccc(NCC#Cc2nc3c(NC4CCC(N5CCOCC5)CC4F)cccn3c2CC(F)(F)F)c(OC([2H])([2H])[2H])c1 (single isomer, unassigned) [Compound 70d]

>  <IC50, µM>
6.65

$$$$
>  <compound>
CNC(=O)c1ccc(NCC#Cc2nc3c(NC4CCC(N5CC6(COC6)C5)CC4F)cccn3c2CC(F)(F)F)c(OC)c1 (single isomer, unassigned)

>  <IC50, µM>
7.46

$$$$

a: [2H]C([2H])([2H])NC(=O)c1ccc(NCC#Cc2cc3c(NC4CCC(N5CC6(COC6)C5)CC4F)cccn3c2CC(F)(F)F)c(OC([2H])([2H])[2H])c1 (single isomer, unassigned) [Compound 74d]
b: CNC(=O)c1ccc(NCC#Cc2cc3c(N[C@@H]4CCN(C)C[C@@H]4F)cccc3n2CC(F)(F)F)c(OC)c1 [Reference compound, reference compound]
Q) I'd appreciate it if you could identify which of a and b has the greater IC50. Respond using the label that marks the chosen record.
A) a
